Consider the following compounds; for each one, report its pIC50.
system: HO-1 (Rattus norvegicus, UniProt P06762)
Construct: Rat spleen microsomal fractions were chosen to isolate HO-1 in its most native form
Sequence (P06762 1-289): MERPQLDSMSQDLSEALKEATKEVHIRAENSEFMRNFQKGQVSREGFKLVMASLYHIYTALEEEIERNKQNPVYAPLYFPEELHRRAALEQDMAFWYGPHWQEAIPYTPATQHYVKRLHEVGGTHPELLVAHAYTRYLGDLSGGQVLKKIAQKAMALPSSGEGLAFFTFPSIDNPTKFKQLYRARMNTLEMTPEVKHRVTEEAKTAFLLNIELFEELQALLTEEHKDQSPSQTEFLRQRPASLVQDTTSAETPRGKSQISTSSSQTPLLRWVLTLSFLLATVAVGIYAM
assay remarks: HO-1 enzymatic activity in the microsomal fraction of rat spleen (bilirubin formation)
measurement conditions: rat spleen microsomal fraction; mean ± SD of triplicate experiments
One number for each entry, as −log10 of the molar value.

Consider the following illustrative entries.
compound	measured metric	assay result
COc1cc2cc(C(=O)NCCCn3ccnc3)n(C)c2cc1OC [Compound 4c]	pIC50	4.26
Cc1ccc2c(c1)cc(C(=O)NCCCn1ccnc1)n2Cc1ccccc1 [Compound 8a]	pIC50	2.69
Cc1ccc2c(c1)cc(C(=O)NCCCn1ccnc1)n2C [Compound 4a]	pIC50	3.43
COc1cc2cc(C(=O)NCCCn3ccnc3)n(Cc3ccccc3)c2cc1OC [Compound 8c]	pIC50	4.09
O=C(NCCCn1ccnc1)c1cc2cc(OCc3ccccc3)ccc2[nH]1 [Compound 1]	pIC50	4.05

Please turn your attention to the following entry.
Fill in reported pIC50 for this entry: Cn1c(C(=O)NCCCn2ccnc2)cc2cc(OCc3ccccc3)ccc21 [Compound 4d]
5.99

---

For each of the molecules below, state its melting point.
Where a name gives a salt, the structure may show the parent alone.

molecule	assay result
Cn1c(C(=O)NCCCn2ccnc2)cc2cc(OCc3ccccc3)ccc21 (as salt: hydrochloride) [Compound 4d]	174 to 175 °C
COc1ccc2c(c1)cc(C(=O)NCCCn1ccnc1)n2C (as salt: hydrochloride) [Compound 4b]	121 to 122 °C
COc1ccc2c(c1)cc(C(=O)NCCCn1ccnc1)n2Cc1ccccc1 (as salt: hydrochloride) [Compound 8b]	151 to 152 °C
Cc1ccc2c(c1)cc(C(=O)NCCCn1ccnc1)n2Cc1ccccc1 (as salt: hydrochloride) [Compound 8a]	178 to 179 °C
COc1cc2cc(C(=O)NCCCn3ccnc3)n(C)c2cc1OC (as salt: hydrochloride) [Compound 4c]	146 to 147 °C

Okay, here is my list. What is melting point for each of these?
1. COc1cc2cc(C(=O)NCCCn3ccnc3)n(Cc3ccccc3)c2cc1OC (as salt: hydrochloride) [Compound 8c]
2. O=C(NCCCn1ccnc1)c1cc2cc(OCc3ccccc3)ccc2[nH]1 [Compound 1]
3. Cc1ccc2c(c1)cc(C(=O)NCCCn1ccnc1)n2C (as salt: hydrochloride) [Compound 4a]

110 to 111 °C
204 to 206 °C
102 to 103 °C
